Listed compounds paired with reported Ratio
# target.system: Opioid receptors; mu & kappa (Homo sapiens) (UniProt P41145+P35372)
# Sequence (P35372 whole entry, looked up): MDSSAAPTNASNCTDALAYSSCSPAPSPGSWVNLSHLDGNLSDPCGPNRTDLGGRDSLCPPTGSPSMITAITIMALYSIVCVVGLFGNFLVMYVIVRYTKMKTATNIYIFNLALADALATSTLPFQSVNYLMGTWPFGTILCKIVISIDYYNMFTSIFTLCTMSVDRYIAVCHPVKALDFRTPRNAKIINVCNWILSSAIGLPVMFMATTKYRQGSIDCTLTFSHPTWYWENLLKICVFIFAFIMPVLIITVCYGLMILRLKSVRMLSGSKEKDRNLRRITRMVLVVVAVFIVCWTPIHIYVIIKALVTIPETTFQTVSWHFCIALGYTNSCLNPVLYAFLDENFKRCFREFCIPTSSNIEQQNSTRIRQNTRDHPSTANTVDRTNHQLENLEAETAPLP
# Sequence (P41145 whole entry, looked up): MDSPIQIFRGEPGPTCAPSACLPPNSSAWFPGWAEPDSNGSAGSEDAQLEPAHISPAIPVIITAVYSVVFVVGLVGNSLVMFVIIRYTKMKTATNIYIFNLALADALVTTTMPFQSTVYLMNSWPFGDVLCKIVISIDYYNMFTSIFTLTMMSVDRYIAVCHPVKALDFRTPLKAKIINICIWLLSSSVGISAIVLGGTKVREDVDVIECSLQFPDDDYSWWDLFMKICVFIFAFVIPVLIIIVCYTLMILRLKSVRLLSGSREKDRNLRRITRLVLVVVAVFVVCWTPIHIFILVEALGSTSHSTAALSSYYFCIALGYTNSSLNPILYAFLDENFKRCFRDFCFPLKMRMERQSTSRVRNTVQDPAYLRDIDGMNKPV
# assay.details: Ratio of (Ke) mu-opioid receptor to that of (Ke) kappa-opioid receptor
# Format: protein assay
Write the value as a bare number.

Here's what some known entries look like.
molecule | Ratio
N/C(=N/Cc1ccc(Cl)cc1)Nc1ccc2[nH]c3c(c2c1)C[C@@]1(O)[C@H]2Cc4ccc(O)c5c4[C@@]1(CCN2CC1CC1)[C@H]3O5 | 37
N=C(N)NCc1ccc2[nH]c3c(c2c1)C[C@@]1(O)[C@H]2Cc4ccc(O)c5c4[C@@]1(CCN2CC1CC1)[C@H]3O5 | 81
N/C(=N\CCc1ccc2[nH]c3c(c2c1)C[C@@]1(O)[C@H]2Cc4ccc(O)c5c4[C@@]1(CCN2CC1CC1)[C@H]3O5)NCc1ccc(Cl)cc1 | 11
Oc1ccc2c3c1O[C@H]1c4[nH]c5ccc(N/C(=N/CC6CC6)NCc6ccccc6)cc5c4C[C@@]4(O)[C@@H](C2)N(CC2CC2)CC[C@]314 | 16
CCCN/C(=N\CC1CC1)Nc1ccc2[nH]c3c(c2c1)C[C@@]1(O)[C@H]2Cc4ccc(O)c5c4[C@@]1(CCN2CC1CC1)[C@H]3O5 | 41

Kindly review the next compound as well.
Prompt: # input compound: CCCC/N=C(\NCCCC)Nc1ccc2[nH]c3c(c2c1)C[C@@]1(O)[C@H]2Cc4ccc(O)c5c4[C@@]1(CCN2CC1CC1)[C@H]3O5 ; wanted: its Ratio
Response: 13

---

# target.system: Opioid receptors; mu & kappa (Homo sapiens) (UniProt P41145+P35372)
# assay.details: Ratio of (Ki) mu-opioid receptor to that of (Ki) kappa-opioid receptor
# Type: protein assay
Recorded Ratio, one value per entry.
Could you keep your reply to the number by itself?

The examples below pair each entry with its known result.
molecule | target.system | Ratio
CCC/N=C(\NCCC)Nc1ccc2[nH]c3c(c2c1)C[C@@]1(O)[C@H]2Cc4ccc(O)c5c4[C@@]1(CCN2CC1CC1)[C@H]3O5 | Opioid receptors; mu & kappa (Homo sapiens) (UniProt P41145+P35372) | 4
N/C(=N/Cc1ccc(O)cc1)Nc1ccc2[nH]c3c(c2c1)C[C@@]1(O)[C@H]2Cc4ccc(O)c5c4[C@@]1(CCN2CC1CC1)[C@H]3O5 | Opioid receptors; mu & kappa (Homo sapiens) (UniProt P41145+P35372) | 4.5
N/C(=N\CCc1ccc2[nH]c3c(c2c1)C[C@@]1(O)[C@H]2Cc4ccc(O)c5c4[C@@]1(CCN2CC1CC1)[C@H]3O5)NCc1ccc([N+](=O)[O-])cc1 | Opioid receptors; mu & kappa (Homo sapiens) (UniProt P41145+P35372) | 4
N/C(=N\CCc1ccc2[nH]c3c(c2c1)C[C@@]1(O)[C@H]2Cc4ccc(O)c5c4[C@@]1(CCN2CC1CC1)[C@H]3O5)NCc1ccccc1 | Opioid receptors; mu & kappa (Homo sapiens) (UniProt P41145+P35372) | 2
N/C(=N/Cc1cccc(O)c1)Nc1ccc2[nH]c3c(c2c1)C[C@@]1(O)[C@H]2Cc4ccc(O)c5c4[C@@]1(CCN2CC1CC1)[C@H]3O5 | Opioid receptors; mu & kappa (Homo sapiens) (UniProt P41145+P35372) | 5

Moving on to another molecule below.
Prompt: Any idea what Ratio came out for N/C(=N\CCc1ccc2[nH]c3c(c2c1)C[C@@]1(O)[C@H]2Cc4ccc(O)c5c4[C@@]1(CCN2CC1CC1)[C@H]3O5)NCc1ccc(N)cc1 on Opioid receptors; mu & kappa (Homo sapiens) (UniProt P41145+P35372)?
Response: 8

From: ChEMBL document CHEMBL1145928
